# Tested on: HuH7
# Type: cell-based, human
READOUT: synergy/antagonism with HSV1716 on cell death (Chou-Talalay)

1) C#Cc1cccc(Nc2ncnc3cc(OCCOC)c(OCCOC)cc23)c1 | limited synergy
2) Cc1ccc(Nc2nccc(N(C)c3ccc4c(C)n(C)nc4c3)n2)cc1S(N)(=O)=O | limited synergy

---

# Tested on: Virttu cell line panel
# METHOD_SUMMARY: cells
# Type: cell-based
# TEST_CONTEXT: Homo sapiens, A-431; all other cell lines (other than A431), 72 hours; read-out: IC50 (DCP leakage), range
pIC50: −log10 of the molar value.
READOUT: pIC50

1) C#Cc1cccc(Nc2ncnc3cc(OCCOC)c(OCCOC)cc23)c1 | 4.60 to 6.00

---

# Test system: SPC111
# METHOD_SUMMARY: combination with HSV1716, Chou-Talalay, SPC111
# Type: cell-based, human
# TEST_CONTEXT: SPC111, HSV1716 moi 0.5 and 0.05, 72 hours
READOUT: synergy/antagonism with HSV1716 on cell death (Chou-Talalay)

1. Cc1ccc(Nc2nccc(N(C)c3ccc4c(C)n(C)nc4c3)n2)cc1S(N)(=O)=O | limited synergy
2. C#Cc1cccc(Nc2ncnc3cc(OCCOC)c(OCCOC)cc23)c1 | limited synergy

---

# Test system: U87
# Format: cell-based, human
READOUT: synergy/antagonism with HSV1716 on cell death (Chou-Talalay)

1. CCN(CC)CCNC(=O)c1c(C)[nH]c(/C=C2\C(=O)Nc3ccc(F)cc32)c1C | strongly synergistic
2. C[C@@H](Oc1cc(-c2cnn(C3CCNCC3)c2)cnc1N)c1c(Cl)ccc(F)c1Cl | strongly synergistic
